Taken from PubChem BioAssay AID1159580.

Below is a list of entries, each paired with its recorded normalized growth value.
- assay-protocol: chemical genetic growth profiling, strain panel (AID 1159580);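 further: tested at 20 µM; growth read once vehicle control cultures reached saturation at 30 °C; 1 = growth at the plate median or of vehicle wells; lower values mean less growth of the strain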
- condition-description: S. cerevisiae deletion strains, growth OD, locus YGL253W, strain hxk2, hits give low values
The campaign covered roughly 5,500 compounds. About 2,000 (36%) were called active. Another 18% or so got no clear call; they are omitted. Some of the results follow.
Lab note: write the figure by itself, no unit.

# count of solved cases: 4
compound	normalized growth
O=C(/C=C/c1ccccc1)c1ccc(O)cc1O	0.054
CC(C)C1CCC(C(=O)N[C@@H](Cc2ccccc2)C(=O)O)CC1 (stereo not given in full)	0.97
OC[C@H]1O[C@@H](Oc2ccc(O)cc2)[C@H](O)[C@@H](O)[C@@H]1O	1.03
CCCC(=O)Nc1ccc(OCC(O)CNC(C)C)c(C(C)=O)c1 (stereo not given)	1.01

In the following, a different compound is considered.
Recorded normalized growth for "O=C(/C=C/c1ccccc1)c1ccc(O[C@@H]2O[C@H](CO)[C@@H](O)[C@H](O)[C@H]2O)cc1O" , please?
0.902
